Tested on: KM12
EXPERIMENTAL PROTOCOL: NCI tumour cell line growth inhibition, 48 h
Calls of active or inactive are those of the source. Cut-off read from the data, not from the text of the source: active = GI50 up to about 1.1 µM and inactive = higher.
Possible outcomes: true (1) for active, false (0) for inactive

COMPOUND: CCN(C(=O)N[C@H](C(=O)N[C@@H](C)C(=O)OC)C(C)C)c1ccccc1
SYSTEM UNDER TEST: KM12
LABEL CLASS: false (0)
//
COMPOUND: O=[N+]([O-])c1ccc(CSc2nncc3[nH]cnc23)cc1
SYSTEM UNDER TEST: KM12
LABEL CLASS: false (0)
//
COMPOUND: CCOP(=O)(OCC)C(F)(F)Cc1cnc(C)c2c1COC(C)(C)O2
SYSTEM UNDER TEST: KM12
LABEL CLASS: false (0)
//
COMPOUND: NC(Cc1ccccc1)c1nn[nH]n1 (stereo not given)
SYSTEM UNDER TEST: KM12
LABEL CLASS: false (0)
//
COMPOUND: CO[C@H](c1ccccc1)[C@H](C)N(C)c1ccc2ccccc2c1C1=NC(C)(C)CO1
SYSTEM UNDER TEST: KM12
LABEL CLASS: false (0)
//
COMPOUND: CC[C@H]1C=CCC[C@@]2(C[C@@H]3CC[C@H]4[C@@H](C(=O)OCCCCCCCCCCCCCCCC(=O)N(CCCNC(C)=O)C[C@H](CCNC(C)=O)OC(C)=O)[C@@]5(CCC[C@@H](C)O5)NC(=[N+]34)N2)O1
SYSTEM UNDER TEST: KM12
LABEL CLASS: false (0)
//
COMPOUND: COc1cc(OC)cc(-n2c(N)c(C#N)c3ccc([N+](=O)[O-])cc3c2=O)c1
SYSTEM UNDER TEST: KM12
LABEL CLASS: false (0)
//
COMPOUND: c1ccc(CNC2CC(NCc3ccccn3)CC(NCc3ccccn3)C2)nc1 (stereo not given)
SYSTEM UNDER TEST: KM12
LABEL CLASS: false (0)
//
COMPOUND: COc1cc(NS(C)(=O)=O)ccc1Nc1cc(C)nc2ccc3[nH]ccc3c12
SYSTEM UNDER TEST: KM12
LABEL CLASS: false (0)
//
COMPOUND: C[C@H]1CC(=O)[C@@]2(O)C#C/C=C\C#C[C@@H]3Nc4c(cc(O)c5c4C(=O)c4ccccc4C5=O)[C@]24O[C@]314
SYSTEM UNDER TEST: KM12
LABEL CLASS: true (1)
//
COMPOUND: Cc1cc2c(cc1C)[n+]([O-])c(NCCCN(C)C)c(C#N)[n+]2[O-]
SYSTEM UNDER TEST: KM12
LABEL CLASS: false (0)
//
COMPOUND: N#Cc1nc(COCCOCc2ccccc2)oc1N
SYSTEM UNDER TEST: KM12
LABEL CLASS: false (0)
//
COMPOUND: CCOC(=O)c1c(N)n(-c2ccccc2)c(=O)n(-c2ccccc2)c1=O
SYSTEM UNDER TEST: KM12
LABEL CLASS: false (0)
//
COMPOUND: COc1cc2c3c(cc(Cl)nc3c1OC)C(O)(CC(=O)c1ccccc1)C(=O)N2 (stereo not given)
SYSTEM UNDER TEST: KM12
LABEL CLASS: false (0)
//
COMPOUND: COc1ccc(C2=C(N)c3ccccc3C2=O)cc1
SYSTEM UNDER TEST: KM12
LABEL CLASS: false (0)
//
COMPOUND: CCOC(=O)CSc1nnc(CSc2nc(-c3ccccc3)c(-c3ccccc3)[nH]2)n1-c1ccccc1
SYSTEM UNDER TEST: KM12
LABEL CLASS: false (0)
//
COMPOUND: CCCCNC(=S)Nc1nc(C(=O)NNS(=O)(=O)c2ccccc2)cs1
SYSTEM UNDER TEST: KM12
LABEL CLASS: false (0)
//
COMPOUND: CCc1nc(N)nc(N)c1-c1ccc2nn(-c3ccccc3)[n+]([O-])c2c1
SYSTEM UNDER TEST: KM12
LABEL CLASS: false (0)
//
COMPOUND: O=Cc1ccccc1B(O)O
SYSTEM UNDER TEST: KM12
LABEL CLASS: false (0)
//
COMPOUND: CCOc1ccc(/N=N/C2C(=O)N(C(=O)CC(=O)Nc3ccccc3OC)N=C2C)cc1 (stereo not given)
SYSTEM UNDER TEST: KM12
LABEL CLASS: false (0)
//
COMPOUND: COc1cccc(/N=N/C(=N/NC(=O)c2cc(Cl)ccc2O)c2ccc(N(CCC#N)CCC#N)cc2C)c1
SYSTEM UNDER TEST: KM12
LABEL CLASS: false (0)
//
COMPOUND: N#CCCC1(CCC#N)S(=O)(=O)OCCOS1(=O)=O
SYSTEM UNDER TEST: KM12
LABEL CLASS: false (0)
//
COMPOUND: CCc1ccc(CCN2CCCCC2)nc1
SYSTEM UNDER TEST: KM12
LABEL CLASS: false (0)
//
COMPOUND: Nc1ccc(S(=O)(=O)c2ccc(/N=[N+](\[O-])c3ccc(S(=O)(=O)c4ccc(N)cc4)cc3)cc2)cc1
SYSTEM UNDER TEST: KM12
LABEL CLASS: false (0)
//
COMPOUND: COc1cc(-c2nc(N)c(C#N)c3c2CCS(=O)(=O)c2ccc(C)cc2-3)cc(OC)c1OC
SYSTEM UNDER TEST: KM12
LABEL CLASS: false (0)
//
COMPOUND: O=S(=O)(c1cc(Cl)ccc1Cl)n1ccnc1
SYSTEM UNDER TEST: KM12
LABEL CLASS: false (0)
//
COMPOUND: O=C1/C(=C/c2ccccc2)CNC/C1=C\c1ccccc1
SYSTEM UNDER TEST: KM12
LABEL CLASS: true (1)
//
COMPOUND: CCCCCCCCCCCCCC[C@@H](O)[C@H]1CC[C@H]([C@H]2CC[C@H]([C@H](O)CCCCCC[C@@H](O)CC3=C[C@H](C)OC3=O)O2)O1
SYSTEM UNDER TEST: KM12
LABEL CLASS: false (0)
//
COMPOUND: CC1=CCC([C@@](C)(O)CCCC(C)(C)N=C=S)CC1 (stereo not given in full)
SYSTEM UNDER TEST: KM12
LABEL CLASS: false (0)
//
COMPOUND: CCCCCCN(N)C(=O)CC#N
SYSTEM UNDER TEST: KM12
LABEL CLASS: false (0)
//
COMPOUND: O=C1CC(NCCCNC2CC(=O)c3c(Br)sc(Br)c32)c2c(Br)sc(Br)c21 (stereo not given)
SYSTEM UNDER TEST: KM12
LABEL CLASS: false (0)
//
COMPOUND: CN(C)Cc1cc(C(=O)/C=C/c2ccc(Br)cc2)cc(CN(C)C)c1O
SYSTEM UNDER TEST: KM12
LABEL CLASS: false (0)
//
COMPOUND: Cc1[nH]c(=O)nc(S)c1C(=O)Nc1cccc2cc3ccccc3cc12
SYSTEM UNDER TEST: KM12
LABEL CLASS: false (0)
//
COMPOUND: O=C(CC(=O)N1N=C(N(c2ccccc2)c2ccccc2)CC1c1ccccc1)Nc1ccc(Cl)cc1 (stereo not given)
SYSTEM UNDER TEST: KM12
LABEL CLASS: false (0)
//
COMPOUND: Cc1ccc(S(=O)(=O)N(CC(O)COc2ccccc2)c2ccc(F)cc2F)cc1 (stereo not given)
SYSTEM UNDER TEST: KM12
LABEL CLASS: false (0)
//
COMPOUND: O=CN1CCN(C(=O)c2ccc(Cl)c(Cl)c2)C1=S
SYSTEM UNDER TEST: KM12
LABEL CLASS: false (0)
//
COMPOUND: O=C1N[C@H](Cc2c[nH]cn2)C(=O)N2CCC[C@@H]12
SYSTEM UNDER TEST: KM12
LABEL CLASS: false (0)
//
COMPOUND: Cc1[nH]c2[nH]c(=S)nc(NC(N)=S)c2c1Cc1ccccc1
SYSTEM UNDER TEST: KM12
LABEL CLASS: false (0)
//
COMPOUND: c1ccc(C(OCCN2CC3CCC(C2)N3)c2ccccc2)cc1
SYSTEM UNDER TEST: KM12
LABEL CLASS: false (0)
//
COMPOUND: CC(C)C(NC(=O)Oc1ccccc1)C(=O)NC1c2c(Br)sc(Br)c2C(=O)C1O (stereo not given)
SYSTEM UNDER TEST: KM12
LABEL CLASS: false (0)

Source of measurements: ChEMBL document CHEMBL1201862
